# solubility thermodynamic listing for each entry below
- Method Summary: physchem
- Experimental Parameters: pH 7.4 buffer
Recorded Endpoint: solubility thermodynamic (µM)

[[record]]
compound = "C[C@@H]1CN(C(=O)OC(C)(C)C)CCN1c1ncc(OCc2ccc(C#N)cc2)cn1"
assay_result = 3.4

[[record]]
compound = "O=C(c1ccc(F)cc1)C1CCN(C(=O)c2ccc(OC(F)(F)F)cc2)CC1"
assay_result = 11.5

[[record]]
compound = "CC(C)(C)NC(=O)[C@@H]1C[C@@H]2CCCC[C@@H]2CN1C[C@@H](O)[C@H](Cc1ccccc1)NC(=O)[C@H](CC(N)=O)NC(=O)c1ccc2ccccc2n1"
assay_result = 36.3

[[record]]
compound = "OC1CCN(CCOc2n[nH]c3ncnc(Nc4ccc(OCc5ccccn5)c(Cl)c4)c23)CC1"
assay_result = 13.8

[[record]]
compound = "Cc1ccc(S(=O)(=O)Nc2c(C(=O)N[C@@H](C)C(C)(C)C)c(C)nn2C2CCSCC2)cc1"
assay_result = 912

[[record]]
compound = "COc1nc(Br)cnc1NS(=O)(=O)c1ccc(Cl)s1"
assay_result = 891

[[record]]
compound = "COC(=O)C1=C(C)NC(C)=C(C(=O)OCCN(C)Cc2ccccc2)C1c1cccc([N+](=O)[O-])c1 (stereo not drawn) [NICARDIPINE]"
assay_result = 7.4

[[record]]
compound = "O=C(CN1CCOCC1)Nc1ccc(-c2cccc3c(=O)cc(N4CCOCC4)oc23)cc1OCC1CC1"
assay_result = 1.5

[[record]]
compound = "COc1ccc(Cc2nnc(N)s2)cc1"
assay_result = 363

[[record]]
compound = "O=C(c1ccccc1)N1CCc2ccccc21"
assay_result = 91.2

[[record]]
compound = "CCCSc1nc(N[C@@H]2C[C@H]2c2ccccc2)c2nnn([C@@H]3C[C@H](O)[C@@H](O)[C@H]3O)c2n1"
assay_result = 1.1

[[record]]
compound = "O=S(=O)(CC(c1ccccc1)N1CCCCC1)c1ccc(Cl)cc1 (stereo not drawn)"
assay_result = 0.9

[[record]]
compound = "CNC(=O)c1cc(-c2nc(N3CCOCC3)cc(C3(S(C)(=O)=O)CC3)n2)c2cc[nH]c2c1"
assay_result = 46.8

[[record]]
compound = "CS(=O)(=O)c1ccc(C(=O)Nc2ccc(F)cc2)c[n+]1[O-]"
assay_result = 219

[[record]]
compound = "Cc1ccc(C(=O)C(=O)c2ccc(C)cc2)cc1"
assay_result = 2.1

[[record]]
compound = "COc1cccc(NC(=O)Cn2cc(Nc3ncnc4cc(OC)c(OC)cc34)cn2)c1"
assay_result = 4.4

[[record]]
compound = "CCN(C(=O)Cc1ccc(S(C)(=O)=O)cc1)C1CCN(CCC(c2ccccc2)N2CCN(c3cccc(F)c3)CC2)CC1 (stereo not drawn)"
assay_result = 144

[[record]]
compound = "Cc1cn(C[C@H]2CN(c3ccc(C4=CCS(=O)(=O)CC4)c(F)c3)C(=O)O2)nn1"
assay_result = 372

[[record]]
compound = "Cc1ccc2nc(C)c(-c3ccnc(N)n3)n2c1"
assay_result = 457

[[record]]
compound = "Cc1ccc(NC(=O)c2cccnc2)cc1-n1cnc2ccc(N3CCN(C)CC3)cc2c1=O"
assay_result = 251

[[record]]
compound = "COc1cccc(NC(=O)Cn2cc(Oc3ncnc4cc(OC)c(OCCN5CCCCC5)cc34)cn2)c1"
assay_result = 141

[[record]]
compound = "COC1CCN(C(=O)C2CCN(CCc3c(-c4cc(C)cc(C)c4)[nH]c4sc(C(C)(C)C(=O)N5C6CCC5CC6)cc34)CC2)C1 (stereo not drawn)"
assay_result = 70.8

[[record]]
compound = "CCN(CC)C(=O)Cc1csc(NS(=O)(=O)c2cccc(Cl)c2C)n1"
assay_result = 40.7

[[record]]
compound = "CC1CCc2cc(F)cc3c(=O)c(C(=O)O)cn1c23 (stereo not drawn) [FLUMEQUINE]"
assay_result = 776

[[record]]
compound = "Nc1cccc(S(=O)(=O)Nc2ccccc2)c1"
assay_result = 1020

[[record]]
compound = "Clc1ccc(-c2cn3cccnc3n2)cc1"
assay_result = 20

[[record]]
compound = "CC[C@@H](C)NC(=O)c1ccc(Oc2ccc(C#C[C@]3(O)CN4CCC3CC4)cc2)cc1"
assay_result = 112

[[record]]
compound = "FC(F)(F)c1nnc2ccc(NCn3nnc4ccccc43)nn12"
assay_result = 18.2

